Exercise: state measured MIC for each of the compounds provided.
Test system: Enterococcus faecium
Test: Antibacterial activity against vancomycin-resistant Enterococcus faecium CL5791
Assay type: functional
Number only, in µg/mL; omit the unit.

Answer with reported MIC of O=C(N[C@H](CO)[C@H](O)c1ccc([N+](=O)[O-])cc1)C(Cl)Cl
6.25

Answer with reported MIC of COc1cc(C)c2c(c1)O[C@@]1(C)Cc3cc4c(c(O)c3[C@@H]2O1)C(=O)c1c(O)c(Cl)c(O)c(Cl)c1C4(C)C
2

Answer with reported MIC of Cc1cc(O)cc2c1[C@@H]1O[C@@](C)(Cc3cc4c(c(O)c31)C(=O)c1c(O)cc(O)cc1C4(C)C)O2
0.5

Answer with reported MIC of CO[C@H]1/C=C/O[C@@]2(C)Oc3c(C)c(O)c4c(O)c(c(/C=N/N5CCN(C)CC5)c(O)c4c3C2=O)NC(=O)/C(C)=C\C=C\[C@H](C)[C@H](O)[C@@H](C)[C@@H](O)[C@@H](C)[C@H](OC(C)=O)[C@@H]1C
0.04

Answer with reported MIC of Cc1cc(O)cc2c1[C@H]1O[C@](C)(Cc3cc4c(c(O)c31)C(=O)c1c(O)cc(O)cc1C4(C)C)O2
2

Source of measurements: ChEMBL document CHEMBL1158822
